Exercise: state measured pIC50 for each of the molecules provided.
- Target desc: intracellular phosphorylation of EGFR (Tyr1068) in PC-9 cells (Homo sapiens, UniProt P00533, DEL746-750)
- Sequence (P00533 with tags, fused parts or gaps DEL746-750): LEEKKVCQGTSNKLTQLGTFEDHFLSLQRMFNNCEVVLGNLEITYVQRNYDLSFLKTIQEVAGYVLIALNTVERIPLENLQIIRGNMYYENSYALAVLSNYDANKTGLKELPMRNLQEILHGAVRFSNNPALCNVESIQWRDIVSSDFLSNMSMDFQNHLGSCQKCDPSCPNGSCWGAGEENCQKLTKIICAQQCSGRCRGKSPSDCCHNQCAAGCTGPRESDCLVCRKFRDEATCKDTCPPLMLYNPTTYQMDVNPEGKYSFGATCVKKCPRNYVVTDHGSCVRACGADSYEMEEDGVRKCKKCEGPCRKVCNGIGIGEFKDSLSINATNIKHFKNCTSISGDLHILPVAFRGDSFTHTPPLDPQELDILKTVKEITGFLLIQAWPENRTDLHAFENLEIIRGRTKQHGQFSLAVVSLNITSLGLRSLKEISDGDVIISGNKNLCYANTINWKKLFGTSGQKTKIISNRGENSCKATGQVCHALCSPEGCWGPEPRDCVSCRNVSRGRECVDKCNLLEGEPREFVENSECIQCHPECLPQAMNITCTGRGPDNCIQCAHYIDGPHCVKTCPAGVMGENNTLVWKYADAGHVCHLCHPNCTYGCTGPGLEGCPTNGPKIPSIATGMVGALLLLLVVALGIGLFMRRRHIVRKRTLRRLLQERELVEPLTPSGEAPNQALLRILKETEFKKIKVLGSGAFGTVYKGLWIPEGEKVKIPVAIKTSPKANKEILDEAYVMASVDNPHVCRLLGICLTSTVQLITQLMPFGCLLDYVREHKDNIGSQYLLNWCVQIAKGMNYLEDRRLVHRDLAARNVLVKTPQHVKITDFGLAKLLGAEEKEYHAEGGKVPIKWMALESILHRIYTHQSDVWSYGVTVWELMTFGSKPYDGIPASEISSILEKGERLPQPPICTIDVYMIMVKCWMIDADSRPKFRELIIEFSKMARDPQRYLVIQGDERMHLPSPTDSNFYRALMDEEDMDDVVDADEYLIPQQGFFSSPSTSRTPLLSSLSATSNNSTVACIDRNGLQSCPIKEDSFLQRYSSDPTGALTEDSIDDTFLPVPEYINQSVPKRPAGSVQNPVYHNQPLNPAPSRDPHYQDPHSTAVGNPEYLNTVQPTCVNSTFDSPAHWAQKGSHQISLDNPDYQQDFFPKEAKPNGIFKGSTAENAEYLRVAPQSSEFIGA
- Method: PC-9 pEGFR AlphaLISA assay
- Condition notes: 4 hours incubation, read-out: Phos EGFR PC9 IC50
- Experimental: PC-9/A431 pEGFR AlphaLISA Assays Inhibitory effects of compounds were evaluated in cellular assays that measure level of intracellular phosphorylation of EGFR in PC-9 (ECACC, #90071810, Milipore/Sigma) and A431 cell lines (ATCC, CRL-1555) using AlphaLISA sureFire ultra p-EGFR (Tyr1068) assay kit (PerkinElmer, ALSU-PEGFR-A50K). […] On the next day, the plate was read the Envision using standard AlphaLisa settings. […]
pIC50: −log10 of the molar value.

These recorded examples may help you get a feel for the data.
Return reported pIC50; argument: `C[C@@H](Oc1cc(-c2cnn(C)c2)cc2ncnc(Nc3ccc4ncsc4c3)c12)C1CC1` ≥ 8.00

Given the molecule `C[C@H](Oc1cc(-c2cnn(C)c2)cc2ncnc(Nc3ccc4ncsc4c3)c12)C1CC1` , what is its reported pIC50? ≥ 8.00

Bench note: what pIC50 did CN1CC[C@@H](Oc2cc(-c3cnn(C)c3)cc3ncnc(Nc4ccc5ncsc5c4)c23)[C@@H](F)C1 (racemic) [Example 339] show? ≥ 8.00

For the molecule CN1CC[C@@H](Oc2cc(-c3cnn(C)c3)cc3ncnc(Nc4ccc5ncsc5c4)c23)[C@@H](F)C1 (single isomer, unassigned) [Example 340] , what pIC50 is on record? ≥ 8.00

Go through the list and state pIC50 for each entry.
1. CO[C@@H]1CCNC[C@H]1Oc1cc(-c2cnn(C)c2)cc2ncnc(Nc3ccc4ncsc4c3)c12 (single isomer, unassigned) [Example A38]
2. C[C@H](CO)n1cc(-c2cc(O[C@H](C)C3COC3)c3c(Nc4ccc5ncsc5c4)ncnc3c2)cn1 (single isomer, unassigned)
3. Cn1cc(-c2cc(OC3CCCOC3)c3c(Nc4ccc5ncsc5c4)ncnc3c2)cn1 (centres unmarked) [Example 414]
4. CN1C[C@H](F)[C@H](Oc2cc(-c3cnn(C)c3)cc3ncnc(Nc4ccc5ncsc5c4)c23)C1 (single isomer, unassigned) [Example 380]
5. COc1cc(O[C@H](C)CN(C)C)c2c(Nc3ccc4ncsc4c3F)ncnc2c1
6. COC[C@@H](C)Oc1cc(N2CCN3CCC[C@@H]3C2)cc2ncnc(Nc3ccc4ncsc4c3)c12
7. CN1CCC[C@H](Oc2cc(-c3cn(C)nc3OC(F)F)cc3ncnc(Nc4ccc5ncsc5c4)c23)C1
8. CN1CCC(COc2cc(-c3cnn(C)c3)cc3ncnc(Nc4ccc5ncsc5c4)c23)C1=O (centres unmarked)

["7.30 to 8.00", "≥ 8.00", "≥ 8.00", "7.30 to 8.00", "7.30 to 8.00", "7.30 to 8.00", "7.30 to 8.00", "7.30 to 8.00"]

For each entry beneath this line, provide reported pIC50.
1. Cn1ccc(-c2cc3ncnc(Nc4ccc5ncsc5c4)c3cc2NC2CCNCC2)n1
2. Cn1cc(-c2cc(O[C@H]3CC[C@H]3O)c3c(Nc4ccc5ncsc5c4)ncnc3c2)cn1

7.30 to 8.00
≥ 8.00

====

Would you kindly list IC50 for each of these compounds?
- Target desc: EGFR L858R (Homo sapiens, UniProt P00533, L858R)
- Construct: purchased SignalChem E10-122BG
- Sequence (P00533 25-1210 L858R): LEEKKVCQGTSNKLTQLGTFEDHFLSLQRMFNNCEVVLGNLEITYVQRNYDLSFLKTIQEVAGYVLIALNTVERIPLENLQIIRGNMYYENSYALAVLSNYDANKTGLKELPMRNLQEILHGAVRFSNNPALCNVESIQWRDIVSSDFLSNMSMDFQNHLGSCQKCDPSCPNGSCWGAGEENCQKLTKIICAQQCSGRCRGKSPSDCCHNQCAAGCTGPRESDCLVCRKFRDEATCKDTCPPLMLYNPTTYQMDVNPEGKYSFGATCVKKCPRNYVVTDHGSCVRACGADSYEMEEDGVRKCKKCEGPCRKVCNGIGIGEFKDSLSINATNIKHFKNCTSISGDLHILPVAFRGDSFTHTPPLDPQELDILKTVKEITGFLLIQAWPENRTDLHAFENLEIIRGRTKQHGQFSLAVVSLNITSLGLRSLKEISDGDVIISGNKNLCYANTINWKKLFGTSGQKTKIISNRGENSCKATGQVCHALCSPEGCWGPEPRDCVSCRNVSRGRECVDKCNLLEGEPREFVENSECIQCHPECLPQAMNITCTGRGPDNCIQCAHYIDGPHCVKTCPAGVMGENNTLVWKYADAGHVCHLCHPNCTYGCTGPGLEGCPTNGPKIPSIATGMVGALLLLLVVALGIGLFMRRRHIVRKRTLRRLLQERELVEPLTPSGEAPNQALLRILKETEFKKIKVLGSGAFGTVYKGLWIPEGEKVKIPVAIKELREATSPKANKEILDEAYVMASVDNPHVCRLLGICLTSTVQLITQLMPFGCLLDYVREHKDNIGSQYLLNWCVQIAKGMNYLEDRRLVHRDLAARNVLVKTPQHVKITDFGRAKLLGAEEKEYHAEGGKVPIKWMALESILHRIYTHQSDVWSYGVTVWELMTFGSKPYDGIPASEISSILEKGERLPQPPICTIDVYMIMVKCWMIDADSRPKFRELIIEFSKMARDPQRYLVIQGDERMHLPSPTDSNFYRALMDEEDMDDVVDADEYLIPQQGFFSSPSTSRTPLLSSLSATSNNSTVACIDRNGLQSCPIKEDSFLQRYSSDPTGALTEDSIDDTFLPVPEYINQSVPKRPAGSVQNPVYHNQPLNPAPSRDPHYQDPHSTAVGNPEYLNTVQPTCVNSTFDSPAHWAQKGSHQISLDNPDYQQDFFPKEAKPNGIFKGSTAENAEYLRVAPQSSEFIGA
- Method: Biochemical EGFR inhibition assay (Caliper mobility shift), EGFR L858R
- Condition notes: biochemical Caliper mobility shift assay, EGFR L858R enzyme; read-out: Enz EGFR L858R IC50

Can you share its IC50? I mean this compound: C[C@@H](Oc1cc(N2CC3(COC3)C2)cc2ncnc(Nc3ccc4ncsc4c3)c12)C1COC1 [Example 204] ≤ 10 nM

Tell me the measured IC50 of CC(C)Oc1cc(O[C@H](C)C2COC2)c2c(Nc3ccc4ncsc4c3)ncnc2c1 [Example 125] , please. ≤ 10 nM

Need IC50 of COc1cc(O[C@H](C)C2COC2)c2c(Nc3ccc4ncsc4c3F)ncnc2c1 (single isomer, unassigned) [Example 82] , thanks. ≤ 10 nM

Record IC50 per entry; entries follow.
1. COC[C@H](CN(C)C)Oc1cc(-c2cnn(C)c2)cc2ncnc(Nc3ccc4ncsc4c3)c12 [Example 141]
2. Cc1cn(-c2cc(O[C@H](C)C3COC3)c3c(Nc4ccc5ncsc5c4)ncnc3c2)c(=O)n1C [Example 202]
3. C[C@@H]1CN(c2cc(O[C@H](C)C3COC3)c3c(Nc4ccc5ncsc5c4F)ncnc3c2)CCN1 (single isomer, unassigned) [Example 100]
4. C[C@H]1COCC[C@H]1Oc1cc(-c2cnn(C)c2)cc2ncnc(Nc3ccc4ncsc4c3)c12 (racemic) [Example 25]

["10.1 to 50 nM", "≤ 10 nM", "10.1 to 50 nM", "≤ 10 nM"]

For each entry beneath this line, provide reported IC50.
1. CN1CCC(Oc2cc(-c3cnn(C)c3)cc3ncnc(Nc4ccc5ncsc5c4)c23)C(F)(F)C1 (stereo not shown) [Example 2]
2. C[C@H](CN(C)C)Oc1cc(-c2cnn(C)c2)cc2ncnc(Nc3ccc4ncsc4c3F)c12 [Example 140]
3. C[C@H](Oc1cc(-c2cnn(C)c2)cc2ncnc(Nc3ccc4ncsc4c3)c12)C(F)(F)F [Example 68]
4. CN1CC[C@H](Nc2cc3c(Nc4ccc5ncsc5c4)ncnc3cc2-c2ccn(C)n2)[C@H](F)C1 (single isomer, unassigned) [Example A06]
5. CN1CCC(Oc2cc(-c3cnn(C(F)F)c3)cc3ncnc(Nc4ccc5ncsc5c4)c23)CC1 [Example 189]
6. Cn1cc(-c2cc(O[C@@H]3CCOC[C@@H]3F)c3c(Nc4ccc5ncsc5c4)ncnc3c2)cn1 (single isomer, unassigned) [Example 44]
7. C[C@@H](Oc1cc(-c2cnn(C)c2)cc2ncnc(Nc3ccc4ncsc4c3)c12)C1COC1 [Example 133]
8. Cn1cc(-c2cc(O[C@H]3CCOC3)c3c(Nc4ccc5ncsc5c4)ncnc3c2)cn1 [Example 36]

≤ 10 nM
≤ 10 nM
≤ 10 nM
≤ 10 nM
10.1 to 50 nM
≤ 10 nM
≤ 10 nM
≤ 10 nM

For each listed entry, give its IC50.
1. COc1cc2ncnc(Nc3ccc4ncsc4c3)c2cc1-c1cnn([C@H]2CCNC[C@@H]2F)c1 (racemic) [Example 168]
2. C[C@@H]1CN(C)CCN1C(=O)Nc1cc2c(Nc3ccc4ncsc4c3)ncnc2cc1-c1ccn(C)n1 [Example 255]
3. Cn1cc(-c2cc(OC3(C)CC3)c3c(Nc4ccc5ncsc5c4)ncnc3c2)cn1 [Example 57]
4. Cn1cc(-c2cc(OC(CO)CO)c3c(Nc4ccc5ncsc5c4)ncnc3c2)cn1 [Example 29]
5. CN1CC[C@H](Oc2cc(-c3cnn(C)c3)cc3ncnc(Nc4ccc5ncsc5c4F)c23)C1=O (single isomer, unassigned) [Example 73]
6. C[C@@H](Oc1cc(-c2cnn(C)c2)cc2ncnc(Nc3ccc4ncsc4c3F)c12)C1CCOCC1 (single isomer, unassigned) [Example 111]
7. Cn1cc(-c2cc(OCC3CCOC3)c3c(Nc4ccc5ncsc5c4)ncnc3c2)cn1 (single isomer, unassigned) [Example 42]
8. C[C@@H]1CN(C)CCN1c1cc(O[C@H](C)C2COC2)c2c(Nc3ccc4ncsc4c3F)ncnc2c1 (single isomer, unassigned) [Example 106]

["≤ 10 nM", "≤ 10 nM", "≤ 10 nM", "≤ 10 nM", "≤ 10 nM", "≤ 10 nM", "≤ 10 nM", "≤ 10 nM"]

====

Kindly state pIC50 for each of the entries shown.
- Target desc: intracellular phosphorylation of EGFR (Tyr1068) in PC-9 cells (Homo sapiens, UniProt P00533, DEL746-750)
- Method: PC-9 pEGFR AlphaLISA assay
- Condition notes: 4 hours incubation, read-out: Phos EGFR PC9 IC50
pIC50: −log10 of the molar value.

Solved cases (4 shown):
// returns reported pIC50 for input COc1nn(C)cc1-c1cc(O[C@@H](C)C(=O)N(C)C)c2c(Nc3ccc4ncsc4c3F)ncnc2c1 (single isomer, unassigned) ≥ 8.00

I have this compound here, `CN1CC(Oc2cc(-c3cnn(C)c3)cc3ncnc(Nc4ccc5ncsc5c4)c23)C1` , and I need its recorded pIC50. 7.30 to 8.00

Would you mind telling me what pIC50 value was observed for Cn1cc(-c2cc(OCC3CCOC3)c3c(Nc4ccc5ncsc5c4)ncnc3c2)cn1 (stereo not drawn) [Example 413] ? 7.30 to 8.00

I'd like to know its pIC50. The compound in question is COc1cn(C)nc1-c1cc(OC2CCN(C)CC2)c2c(Nc3ccc4ncsc4c3)ncnc2c1 [Example 131] 7.30 to 8.00

Quick one: give me pIC50 for each item below, same order please.
1. C[C@@H]1CN(C)CCN1c1cc(O[C@H](C)C2COC2)c2c(Nc3ccc4ncsc4c3F)ncnc2c1 (single isomer, unassigned) [Example 106]
2. COc1cc(-c2cnn(C)c2)cc2ncnc(Nc3ccc4ncsc4c3F)c12
3. Cn1cc(-c2cc(OCC(=O)N3CCOCC3)c3c(Nc4ccc5ncsc5c4F)ncnc3c2)cn1
4. CN1C[C@H](F)[C@H](Oc2cc(-c3cnn(C)c3)cc3ncnc(Nc4ccc5ncsc5c4)c23)C1 (single isomer, unassigned) [Example 381]
5. CN1CCC[C@H](Oc2cc(-c3cn(C)nn3)cc3ncnc(Nc4ccc5ncsc5c4)c23)C1
6. COc1nn(C)cc1-c1cc(O[C@H]2CCN(C)C2=O)c2c(Nc3ccc4ncsc4c3)ncnc2c1 (single isomer, unassigned) [Example 75]
7. CN1CCC(C)(COc2cc(-c3cnn(C)c3)cc3ncnc(Nc4ccc5ncsc5c4)c23)C1=O (stereo not drawn)

1. 7.30 to 8.00
2. 7.30 to 8.00
3. ≥ 8.00
4. 7.30 to 8.00
5. 7.30 to 8.00
6. ≥ 8.00
7. 7.30 to 8.00

These data points were gathered from patent US20260207602A1.
